System: U2OS
assayRemarks: Multiplex assay against U2OS
Type: toxicity, cell-based
measurementContext: human, 24 h, 10 µM, compound concentration 10 uM, replicate 2
Listed compounds paired with reported Population Tubulin-Different-Phenotype (%)
Report field: quantity (unit follows the number).

Cc1csc2c(N[C@@H](C)CN3CCN(S(=O)(=O)c4ccc(Cl)c(Cl)c4)CC3)ncnc12
97%
CN1CCN(c2ccc(OC(F)(F)F)c(Nc3ncc4c(n3)-c3c(c(C(N)=O)nn3CCO)CC4)c2)CC1
55%
C=CC(=O)Nc1cc2c(Nc3ccc(F)c(Cl)c3)ncnc2cc1OCCCN1CCOCC1.Cl.Cl [CANERTINIB DIHYDROCHLORIDE]
19%

INPUT: Report Population Tubulin-Different-Phenotype (%) for CCN(CC)CCCCNc1ncc2cc(-c3cc(OC)cc(OC)c3)c(NC(=O)NC(C)(C)C)nc2n1 tested on U2OS.
OUTPUT: 59%

---

Tested on: HEK-293T
assayRemarks: Multiplex assay against HEK293T
Assay type: toxicity, cell-based
measurementContext: human, 24 h, 1 µM, compound concentration 1 uM, replicate 1
Population Membrane Permeable-Phenotype (%) values for the molecules below.
Reply with just the number (in %).

Some molecules with known Population Membrane Permeable-Phenotype (%) results, for comparison:
COc1cc2nccc(Oc3ccc(NC(=O)Nc4cc(C)on4)c(Cl)c3)c2cc1OC.O
10
C=CC(=O)Nc1cccc(C(=O)Nc2ccc(Nc3cc(-c4[nH]c(SC)nc4C)ccn3)cc2)c1
3
CN1CCN(c2ccc(OC(F)(F)F)c(Nc3ncc4c(n3)-c3c(c(C(N)=O)nn3CCO)CC4)c2)CC1 [ONVANSERTIB]
9

INPUT: State the recorded Population Membrane Permeable-Phenotype (%) for this entry: CN1CCC[C@@H]1CCO[C@](C)(c1ccccc1)c1ccc(Cl)cc1.O=C(O)/C=C/C(=O)O [CLEMASTINE FUMARATE]
OUTPUT: 0

---

Tested on: Fibroblast
assayRemarks: Multiplex assay against human fibroblast
Type: toxicity, cell-based
measurementContext: 48 h, 1 µM, compound concentration 1 uM, replicate 2
propertyName: Population Mitotic Cells (%)
Write down the numeric answer in % and omit the unit.

Recorded results for 8 compounds are shown here.
C=CC(=O)Nc1ccc2ncnc(Nc3ccc(OCc4cccc(F)c4)c(Cl)c3)c2c1.Cc1ccc(S(=O)(=O)O)cc1
50
Cc1[nH]c(/C=C2\C(=O)Nc3ccc(S(=O)(=O)N(C)c4cccc(Cl)c4)cc32)c(C)c1C(=O)N1CCN(C)CC1
50
COc1cc(-n2cnc3cc(-c4ccc(Cl)cc4)sc3c2=O)ccc1OCCN1CCCC1
66
Cn1cc(-c2[nH]c3cc(NC(=O)[C@H](N)C4CCCCC4)cc4c3c2C=NNC4=O)cn1
100
CN1CCC[C@@H]1CCO[C@](C)(c1ccccc1)c1ccc(Cl)cc1.O=C(O)/C=C/C(=O)O [CLEMASTINE FUMARATE]
0
COc1ncc(-c2ccc3nccc(-c4ccnnc4)c3c2)cc1NS(=O)(=O)c1ccc(F)cc1F
0
O=C1NCN(c2ccccc2)C12CCN(CCCOc1ccc(F)cc1)CC2 [SPIRAMIDE]
100
CN(C)CC#Cc1ccc(OCCCc2sc(N3CCc4cccc(C(=O)Nc5nc6ccccc6s5)c4C3)nc2C(=O)O)c(F)c1
20

INPUT: Returns the measured Population Mitotic Cells (%) for the input compound. Input: CC(C)(O)CNc1ncc(-c2ccnc(Nc3ccnc(Cl)c3)n2)c(CC2CC2)n1
OUTPUT: 50

INPUT: Query: Population Mitotic Cells (%); subject: CN1CCCC(n2nc(Cc3ccc(Cl)cc3)c3ccccc3c2=O)CC1.Cl (stereo unspecified) [AZELASTINE HYDROCHLORIDE]
OUTPUT: 25

INPUT: Record request: Population Mitotic Cells (%) value, item Cc1cc(C)cc(-c2cnc3cc(Cl)c(-c4cccc(O)c4)cc3c2OCCCN)c1
OUTPUT: 25

INPUT: Data request, read-out Population Mitotic Cells (%), for CN1CCN(c2ccc(OC(F)(F)F)c(Nc3ncc4c(n3)-c3c(c(C(N)=O)nn3CCO)CC4)c2)CC1
OUTPUT: 60

INPUT: Tell me the measured Population Mitotic Cells (%) of O=C(NCCCC1CCCCC1)c1ccc(CNC(=O)c2cnn(-c3ccccc3)c2C(F)(F)F)cc1 , please.
OUTPUT: 0
